Reference for the values: ChEMBL document CHEMBL1148469

molecular target: Cyclin-dependent kinase 1/cyclin B (Marthasterias glacialis); assay: Inhibitory activity against cyclin dependent kinase 1-cyclinB from starfish (Marthasterias glacialis) oocytes
OBSERVABLE: IC50

Use these answered entries as a reference point.
STRUCTURE SMILES: O=C1C(c2c(O)[nH]c3ccccc23)=Nc2cc(Br)ccc21
OBSERVABLE: IC50
MEASUREMENT: > 100 µM
--
STRUCTURE SMILES: Cn1c(O)c(C2=Nc3ccccc3C2=O)c2ccc(Br)cc21
OBSERVABLE: IC50
MEASUREMENT: > 100 µM

Bench note: what IC50 did O=C1C(c2c(O)[nH]c3cc(Br)ccc23)=Nc2cc(Br)ccc21 show?
> 100 µM
